Tested on: Klebsiella pneumoniae
Assay: Antibacterial activity against Klebsiella pneumoniae NCIM 2957 assessed as zone of inhibition at 200 ug/disc after 24 hrs by disk diffusion method
Type: functional
Conditions: NCIM 2957, 24 h, read-out: DIZ
METRIC_NAME: zone of inhibition at 200 µg/disc (mm)
Write the number in mm without appending the unit.

Quick one: zone of inhibition at 200 µg/disc for Cc1ccc2[nH]c3c(c2c1)CCCc1cnn(-c2ccccc2)c1-3 ?
28

Give its zone of inhibition at 200 µg/disc value. Item: Cc1ccc2[nH]c3c(c2c1)CCCc1cnc(S)nc1-3
12

Give the measured zone of inhibition at 200 µg/disc of c1ccc2c3c([nH]c2c1)-c1n[nH]cc1CCC3 .
26

Fill in: zone of inhibition at 200 µg/disc of Clc1ccc2[nH]c3c(c2c1)CCCc1conc1-3 is ___
29

Fill in the blank: the reported zone of inhibition at 200 µg/disc of Sc1ncc2c(n1)-c1[nH]c3ccccc3c1CCC2 is ____.
11

Give the measured zone of inhibition at 200 µg/disc of Oc1ncc2c(n1)-c1[nH]c3ccc(Cl)cc3c1CCC2 .
25

Look up zone of inhibition at 200 µg/disc for this compound: Oc1ncc2c(n1)-c1[nH]c3ccccc3c1CCC2
24

Can you look up the measured zone of inhibition at 200 µg/disc of O=C1/C(=C/O)CCCc2c1[nH]c1ccc(Cl)cc21 for me?
30

Any idea what its zone of inhibition at 200 µg/disc is? The compound is Sc1ncc2c(n1)-c1[nH]c3ccc(Cl)cc3c1CCC2
14

Given the entry Cc1ccc2[nH]c3c(c2c1)CCCc1c[nH]nc1-3 , report its measured zone of inhibition at 200 µg/disc.
30

Returns the measured zone of inhibition at 200 µg/disc for the input compound. Input: Cc1ccc2[nH]c3c(c2c1)CCCc1cnc(O)nc1-3
23

Look at this compound and give its reported zone of inhibition at 200 µg/disc. c1ccc(-n2ncc3c2-c2[nH]c4ccccc4c2CCC3)cc1
24

What value of measured zone of inhibition at 200 µg/disc is listed for c1ccc2c3c([nH]c2c1)-c1nocc1CCC3 ?
27

---

For each of the molecules below, state its zone of inhibition at 100 µg/disc.
Test system: Klebsiella pneumoniae
Experiment: Antibacterial activity against Klebsiella pneumoniae NCIM 2957 assessed as zone of inhibition at 100 ug/disc after 24 hrs by disk diffusion method
Format: functional
Settings: NCIM 2957, 24 h, read-out: DIZ
Note: unit mm is implicit; provide only the numeric part.

Given c1ccc2c3c([nH]c2c1)-c1n[nH]cc1CCC3 , state its recorded zone of inhibition at 100 µg/disc.
23

State the recorded zone of inhibition at 100 µg/disc for this entry: O=C1/C(=C/O)CCCc2c1[nH]c1ccccc21
24

GET /values?readout=zone of inhibition at 100 µg/disc&item= Cc1ccc2[nH]c3c(c2c1)CCCc1cnc(S)nc1-3
11

If you can, please state the reported zone of inhibition at 100 µg/disc value of Clc1ccc2[nH]c3c(c2c1)CCCc1c[nH]nc1-3 .
30

Using the record for Cc1ccc2[nH]c3c(c2c1)CCCc1cnn(-c2ccccc2)c1-3 , report its zone of inhibition at 100 µg/disc.
26

Given the entry O=C1/C(=C/O)CCCc2c1[nH]c1ccc(Cl)cc21 , report its measured zone of inhibition at 100 µg/disc.
28

For the molecule shown here, c1ccc2c3c([nH]c2c1)-c1nocc1CCC3 , give the reported zone of inhibition at 100 µg/disc.
25

// query zone of inhibition at 100 µg/disc value for entry O=C(N[C@H](CO)[C@H](O)c1ccc([N+](=O)[O-])cc1)C(Cl)Cl
37

Endpoint output: zone of inhibition at 100 µg/disc of Cc1ccc2[nH]c3c(c2c1)CCCc1conc1-3 . Value?
26

Item Cc1ccc2[nH]c3c(c2c1)CCCc1c[nH]nc1-3 has what recorded zone of inhibition at 100 µg/disc?
28

Reported zone of inhibition at 100 µg/disc for Sc1ncc2c(n1)-c1[nH]c3ccccc3c1CCC2 : what is it?
9

Fill in the blank: the reported zone of inhibition at 100 µg/disc of Cc1ccc2[nH]c3c(c2c1)CCCc1cnc(O)nc1-3 is ____.
21

Query: zone of inhibition at 100 µg/disc; subject: Clc1ccc2[nH]c3c(c2c1)CCCc1cnn(-c2ccccc2)c1-3
28

Any idea what its zone of inhibition at 100 µg/disc is? The molecule is c1ccc(-n2ncc3c2-c2[nH]c4ccccc4c2CCC3)cc1
21

So what's the measured zone of inhibition at 100 µg/disc for this one? Oc1ncc2c(n1)-c1[nH]c3ccccc3c1CCC2
22

Quick one: zone of inhibition at 100 µg/disc of Oc1ncc2c(n1)-c1[nH]c3ccc(Cl)cc3c1CCC2 ?
22

Please report the recorded zone of inhibition at 100 µg/disc for Sc1ncc2c(n1)-c1[nH]c3ccc(Cl)cc3c1CCC2 .
12

What value of measured zone of inhibition at 100 µg/disc is listed for Cc1ccc2[nH]c3c(c2c1)CCC/C(=C\O)C3=O ?
25

Data request, read-out zone of inhibition at 100 µg/disc, for Clc1ccc2[nH]c3c(c2c1)CCCc1conc1-3
26

---

Exercise: state measured MIC for each of the molecules provided.
Test system: Mycobacterium tuberculosis
Assay: Antimycobacterial activity against Mycobacterium tuberculosis H37Rv after 7 days by resazurin microtiter plate assay
Format: functional
Details: 168 h
Return type: number; implicit unit µg/mL.

Checklist item: MIC tested on Mycobacterium tuberculosis, entry Sc1ncc2c(n1)-c1[nH]c3ccc(Cl)cc3c1CCC2 , value?
25

Provide value of MIC for this record tested with Mycobacterium tuberculosis: Clc1ccc2[nH]c3c(c2c1)CCCc1c[nH]nc1-3
12.5

Field: MIC (Mycobacterium tuberculosis). Entry: Cc1ccc2c3c([nH]c2c1)-c1nc(S)ncc1CCC3
50

Lab request: please report MIC under test system Mycobacterium tuberculosis for Cc1ccc2[nH]c3c(c2c1)CCC/C(=C\O)C3=O
25

Report MIC for Cc1cccc2c3c([nH]c12)C(=O)/C(=C/O)CCC3 tested on Mycobacterium tuberculosis.
50

Write down the reported MIC of O=C1/C(=C/O)CCCc2c1[nH]c1ccccc21 , test system: Mycobacterium tuberculosis.
50

// map Cc1ccc2[nH]c3c(c2c1)CCCc1c[nH]nc1-3 to recorded MIC (system: Mycobacterium tuberculosis)
50

What reported MIC corresponds to Clc1ccc2[nH]c3c(c2c1)CCCc1conc1-3 on Mycobacterium tuberculosis?
3.12

Provide value of MIC for this record tested with Mycobacterium tuberculosis: Cc1ccc2[nH]c3c(c2c1)CCCc1cnc(O)nc1-3
50

---

Please go through the items and note down their MIC.
Tested on: Bacillus subtilis
Experiment: Antibacterial activity against Bacillus subtilis NCIM 2063 after 24 hrs by disk diffusion method
Assay type: functional
Conditions: NCIM 2063, 24 h
# value in µg/mL; strip the unit string

State the recorded MIC for this entry: Clc1ccc2[nH]c3c(c2c1)CCCc1cnn(-c2ccccc2)c1-3
25

Bench note: what MIC did Clc1ccc2[nH]c3c(c2c1)CCCc1conc1-3 show?
50

What MIC value was documented for this molecule, Sc1ncc2c(n1)-c1[nH]c3ccc(Cl)cc3c1CCC2 ?
50

For Clc1ccc2[nH]c3c(c2c1)CCCc1c[nH]nc1-3 , what is its reported MIC?
100

Consider the molecule Oc1ncc2c(n1)-c1[nH]c3ccc(Cl)cc3c1CCC2 and give its measured MIC.
50

Recorded MIC of O=C(N[C@H](CO)[C@H](O)c1ccc([N+](=O)[O-])cc1)C(Cl)Cl , please.
6.25

---

Tested on: Proteus vulgaris
Assay: Antibacterial activity against Proteus vulgaris NCIM 2027 assessed as zone of inhibition at 100 ug/disc after 24 hrs by disk diffusion method
Type: functional
Conditions: NCIM 2027, 24 h, read-out: DIZ
METRIC_NAME: zone of inhibition at 100 µg/disc

Could you tell me which zone of inhibition at 100 µg/disc is on file for Cc1ccc2[nH]c3c(c2c1)CCCc1cnn(-c2ccccc2)c1-3 ?
21 mm

Given Cc1ccc2[nH]c3c(c2c1)CCCc1conc1-3 , state its recorded zone of inhibition at 100 µg/disc.
26 mm

I have this compound here, Sc1ncc2c(n1)-c1[nH]c3ccccc3c1CCC2 , and I need its recorded zone of inhibition at 100 µg/disc.
8 mm

Need zone of inhibition at 100 µg/disc, item O=C1/C(=C/O)CCCc2c1[nH]c1ccc(Cl)cc21
25 mm

Which zone of inhibition at 100 µg/disc reading was recorded for the compound O=C1/C(=C/O)CCCc2c1[nH]c1ccccc21 ?
23 mm

Could you tell me which zone of inhibition at 100 µg/disc is on file for c1ccc2c3c([nH]c2c1)-c1nocc1CCC3 ?
24 mm

Looking for the measured zone of inhibition at 100 µg/disc of Clc1ccc2[nH]c3c(c2c1)CCCc1cnn(-c2ccccc2)c1-3 , can you help?
29 mm

Entry under review: Cc1ccc2[nH]c3c(c2c1)CCCc1c[nH]nc1-3 . Reported zone of inhibition at 100 µg/disc?
24 mm

What does the record list as zone of inhibition at 100 µg/disc for c1ccc(-n2ncc3c2-c2[nH]c4ccccc4c2CCC3)cc1 ?
20 mm

Would you mind telling me what zone of inhibition at 100 µg/disc value was observed for Cc1ccc2[nH]c3c(c2c1)CCCc1cnc(S)nc1-3 ?
10 mm

Look at this compound and give its reported zone of inhibition at 100 µg/disc. Oc1ncc2c(n1)-c1[nH]c3ccc(Cl)cc3c1CCC2
22 mm

May I ask what zone of inhibition at 100 µg/disc has been recorded for Clc1ccc2[nH]c3c(c2c1)CCCc1conc1-3 ?
28 mm

I have this compound here, Sc1ncc2c(n1)-c1[nH]c3ccc(Cl)cc3c1CCC2 , and I need its recorded zone of inhibition at 100 µg/disc.
11 mm

Record request: zone of inhibition at 100 µg/disc value, item Oc1ncc2c(n1)-c1[nH]c3ccccc3c1CCC2
21 mm

// lookup zone of inhibition at 100 µg/disc for Clc1ccc2[nH]c3c(c2c1)CCCc1c[nH]nc1-3
31 mm

Quick one: zone of inhibition at 100 µg/disc for O=C(N[C@H](CO)[C@H](O)c1ccc([N+](=O)[O-])cc1)C(Cl)Cl ?
42 mm

Value lookup for zone of inhibition at 100 µg/disc; key = c1ccc2c3c([nH]c2c1)-c1n[nH]cc1CCC3
22 mm

Recorded zone of inhibition at 100 µg/disc for Cc1ccc2[nH]c3c(c2c1)CCC/C(=C\O)C3=O , please?
22 mm

What value of measured zone of inhibition at 100 µg/disc is listed for Cc1ccc2[nH]c3c(c2c1)CCCc1cnc(O)nc1-3 ?
19 mm
